These data points were gathered from paper PMC4272579.

For reference, Kd measured on purified and modified human CYP17A1 (Homo sapiens):
// note: answer is a bare numeric in nM

Response field Kd (purified and modified human CYP17A1 (Homo sapiens)) for item C[C@]12CC[C@@H](O)C=C1CC[C@@H]1[C@@H]2CC[C@]2(C)C(c3cccnc3)=CC[C@@H]12 [Compound 13, 17-(3-pyridyl)androsta-4,16-dien-3α-ol] : 1660

# next compound below
Lab entry: purified and modified human CYP17A1 (Homo sapiens) assay, compound C[C@]12CC[C@H](O)CC1=CC[C@@H]1[C@@H]2CC[C@]2(C)C(c3cccnc3)=CC[C@@H]12 [Abiraterone, abiraterone, reference compound] , Kd = 2.6

---

biological target: native human CYP17A1 enzyme in yeast microsomes (Homo sapiens)
Sequence (P05093 whole entry): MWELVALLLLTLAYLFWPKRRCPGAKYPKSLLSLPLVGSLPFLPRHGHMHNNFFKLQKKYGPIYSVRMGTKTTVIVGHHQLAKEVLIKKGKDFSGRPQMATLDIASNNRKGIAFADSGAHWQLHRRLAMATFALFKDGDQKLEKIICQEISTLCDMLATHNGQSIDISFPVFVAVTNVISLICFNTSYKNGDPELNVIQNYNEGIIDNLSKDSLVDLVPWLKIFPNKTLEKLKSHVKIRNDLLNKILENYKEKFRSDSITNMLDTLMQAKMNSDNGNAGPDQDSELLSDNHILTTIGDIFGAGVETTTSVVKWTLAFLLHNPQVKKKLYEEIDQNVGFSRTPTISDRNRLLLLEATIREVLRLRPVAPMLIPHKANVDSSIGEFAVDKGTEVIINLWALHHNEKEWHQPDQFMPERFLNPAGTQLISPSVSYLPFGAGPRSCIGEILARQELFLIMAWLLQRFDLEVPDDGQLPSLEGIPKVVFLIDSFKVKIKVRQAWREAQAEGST
readout-label: Ki (nM)
The reply should be a number in nM, with the unit left off.

Completed entries (count: 3):
Entry C[C@]12CC[C@@H](O)C[C@@H]1CC[C@@H]1[C@@H]2CC[C@]2(C)C(c3cccnc3)=CC[C@@H]12 [Compound 5, 17-(3-pyridyl)-5α-androsta-16-ene-3α-ol] : Ki on native human CYP17A1 enzyme in yeast microsomes (Homo sapiens) = 14

Value (Ki, native human CYP17A1 enzyme in yeast microsomes (Homo sapiens)) for record C[C@]12CCC(=O)C=C1CC[C@@H]1[C@@H]2CC[C@]2(C)C(c3cccnc3)=CC[C@@H]12 [Compound 11, 17-(3-pyridyl)androsta-4,16-dien-3-one] = 22

Given the compound C[C@]12CC[C@H](O)CC1=CC[C@@H]1[C@@H]2CC[C@]2(C)C(c3cccnc3)=CC[C@@H]12 [Abiraterone, abiraterone, reference compound] and test system native human CYP17A1 enzyme in yeast microsomes (Homo sapiens), the measured Ki is 27

Continuing:
The observed Ki for C[C@]12CCC(=O)C[C@@H]1CC[C@@H]1[C@@H]2CC[C@]2(C)C(c3cccnc3)=CC[C@@H]12 [Compound 6, 17-(3-pyridyl)-5α-androsta-16-ene-3-one] when tested with native human CYP17A1 enzyme in yeast microsomes (Homo sapiens) stands at 7

Lab note: compound C[C@]12CC[C@@H](O)C=C1CC[C@@H]1[C@@H]2CC[C@]2(C)C(c3cccnc3)=CC[C@@H]12 [Compound 13, 17-(3-pyridyl)androsta-4,16-dien-3α-ol] tested on native human CYP17A1 enzyme in yeast microsomes (Homo sapiens); recorded Ki was 80
